Tested on: BT-549 breast
Test: NCI tumour cell line growth inhibition, 48 h
Documented TGI across a set of molecules

molecule: COc1ccc(C2=C(c3cn(C)c4ccccc34)C(=O)NC2=O)cc1
TGI: > 25 µM

molecule: CNC(=O)CCC(NC(=O)OC(C)(C)C)C(=O)NC(Cc1ccc(NC(=O)CCCCC(C)=O)cc1)C(=O)NCC(=O)NC (stereo not given)
TGI: > 100 µM

molecule: C=CCN(C(=O)OC(C)(C)C)C1=CC2C(C)=CN(S(=O)(=O)c3ccccc3)C2C(OCc2ccccc2)=C1 (stereo not given)
TGI: > 100 µM

molecule: COc1cc(/C=N/NC(=O)c2ccc(NC(C)=O)cc2OC)ccc1O
TGI: > 100 µM

molecule: Cc1ccc(O)c(N=Nc2c(O)cc(S(=O)(=O)O)c3ccccc23)c1
TGI: > 100 µM

molecule: COC(=O)CNC(=O)c1cc(C)cc2c1Oc1c(cc(C)cc1C(=O)NCC(=O)OC)S2
TGI: > 100 µM

molecule: O=C(O)/C=N/NC(=S)NC1CCCCC1
TGI: > 100 µM

molecule: O=c1[nH]c2cc(C(F)(F)F)ccc2nc1CBr
TGI: 27.5 µM

molecule: Nc1nc(-c2cccc3ccccc23)cc2ccccc12
TGI: 27.9 µM

molecule: C[C@]12CCC3c4ccc(O)cc4CC[C@H]3C1CC(=O)N(CCN1CCCC1)C2=O (stereo not given in full)
TGI: > 10 µM
